Quick list: GI50 per entry.
System: SR
assay details: NCI tumour cell line growth inhibition, 48 h
The source made the active and inactive calls. Cut-off read from the data, not from the text of the source: active = GI50 up to about 1.1 µM and inactive = higher.

compound=COc1ccc(-c2cc(N3CCN(c4ccc(Cl)cc4)CC3)c(C#N)c(=O)o2)cc1 result="> 100 µM (inactive)"

Query: I am curious: what GI50 value has been reported for O=C1OC(c2ccccc2)=N/C1=C\c1ccc(F)cc1 ?
Result: > 100 µM (inactive)

Query: What does the data say about its GI50? Entry: O=CC(=C(I)I)c1ccccc1
Result: 0.197 µM (active)

Query: Could you tell me which GI50 is on file for O=[N+]([O-])c1cccc2nccc(NCCCO)c12 ?
Result: 7.66 µM (inactive)

Query: Consider the compound COc1cc2cc(C(=O)N3CC(CCl)c4c3cc(NC(=O)C(C)(C)c3ccccc3[N+](=O)[O-])c3ccccc43)[nH]c2c(OC)c1OC (stereo unspecified) and give its measured GI50.
Result: 0.192 µM (active)

Query: Requested read-out: GI50. Entry: CCCCCCC(=O)OC[n+]1ccc(-c2c(COC(=O)NC(C)C)c(COC(=O)NC(C)C)c3n2CCC3)cc1
Result: 10 µM (inactive)

Data credit: ChEMBL document CHEMBL1201862
